Where these numbers come from: patent US9327008B2

- MEASURED_TARGET: MK2 (Homo sapiens, UniProt P49137)
- Sequence (P49137 whole entry): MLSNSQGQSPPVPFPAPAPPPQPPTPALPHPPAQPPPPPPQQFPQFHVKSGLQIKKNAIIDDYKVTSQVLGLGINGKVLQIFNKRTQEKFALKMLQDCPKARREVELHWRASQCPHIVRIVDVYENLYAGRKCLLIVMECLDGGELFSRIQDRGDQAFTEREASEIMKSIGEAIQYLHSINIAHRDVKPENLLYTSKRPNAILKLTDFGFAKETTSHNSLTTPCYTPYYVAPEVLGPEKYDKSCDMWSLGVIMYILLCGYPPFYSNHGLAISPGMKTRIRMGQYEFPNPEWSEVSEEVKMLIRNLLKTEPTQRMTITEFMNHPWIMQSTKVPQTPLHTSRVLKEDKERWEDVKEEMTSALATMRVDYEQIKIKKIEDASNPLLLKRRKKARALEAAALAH
- TEST_METHOD_NOTES: Omnia fluorescence-based kinase activity assay for MAPKAP-K2 (reaction velocity)
- Format: biochemical
- Parameters: purchased Invitrogen
- ASSAY_CONDITIONS: 100 μM peptide; percentage change in MK2 reaction velocity versus unsubstituted KALNRQLGVAA at 100 μM; SD of three samples
Non-standard residues stand in square brackets, D forms with d. No end group written: not given here.
QUANTITY_NAME: percent change in MK2 reaction velocity versus unsubstituted peptide

Illustrative cases are given below, each with its answer.
Query block: Fill blank: measured percent change in MK2 reaction velocity versus unsubstituted peptide of the substance KALdNRQLGVAA (KAL[dN]RQLGVAA-NH2) [therapeutic domain, D-amino acid substitution] is ____.
Result block: −5(10) %

Query block: Requested field: percent change in MK2 reaction velocity versus unsubstituted peptide. Item: KALNAQLGVAA [therapeutic domain, alanine substitution]
Result block: +258(14) %

Query block: Quick one: percent change in MK2 reaction velocity versus unsubstituted peptide of KALNRQLGVAA [unsubstituted therapeutic domain peptide] ?
Result block: +258(26) %

Query block: Which percent change in MK2 reaction velocity versus unsubstituted peptide value is on record for KALNRQdLGVAA (KALNRQ[dL]GVAA-NH2) [therapeutic domain, D-amino acid substitution] ?
Result block: +257(17) %

Query block: # percent change in MK2 reaction velocity versus unsubstituted peptide lookup, item YARAAARQARA [synthetic protein transduction domain peptide PTD-4, reference compound]
Result block: +149(13) %

Query block: Find the recorded percent change in MK2 reaction velocity versus unsubstituted peptide belonging to KALNRQLGVA [therapeutic domain without C-terminal Ala] and report it.
Result block: 0(5) %

Continuing:
Query block: Entry under review: KKKALNRQLGVAA [therapeutic domain with two additional N-terminal Lys] . Reported percent change in MK2 reaction velocity versus unsubstituted peptide?
Result block: −9(8) %

Query block: I have this substance here, KAANRQLGVAA [therapeutic domain, alanine substitution] , and I need its recorded percent change in MK2 reaction velocity versus unsubstituted peptide.
Result block: +52(6) %

Query block: Fill blank: measured percent change in MK2 reaction velocity versus unsubstituted peptide of the substance KALNRQLGdVAA (KALNRQLG[dV]AA) [therapeutic domain, D-amino acid substitution] is ____.
Result block: +160(23) %

Query block: For the substance WLRRIKAWLRRIKA [protein transduction domain peptide] , what percent change in MK2 reaction velocity versus unsubstituted peptide is on record?
Result block: −83(4) %
